Target: human PPARalpha (Homo sapiens (Human), UniProt Q07869)
Sequence (Q07869 168-468): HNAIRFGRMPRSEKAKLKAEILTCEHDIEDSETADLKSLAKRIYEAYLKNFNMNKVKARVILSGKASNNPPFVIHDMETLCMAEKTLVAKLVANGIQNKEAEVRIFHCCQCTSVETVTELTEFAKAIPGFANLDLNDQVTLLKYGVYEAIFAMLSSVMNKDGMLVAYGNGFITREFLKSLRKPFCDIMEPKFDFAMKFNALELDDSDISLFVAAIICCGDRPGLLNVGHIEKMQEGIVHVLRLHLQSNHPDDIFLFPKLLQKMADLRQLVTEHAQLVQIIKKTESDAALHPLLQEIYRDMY
Assay: Transactivation (reporter gene) assay, GAL4-PPARalpha LBD in U-2 OS cells
Conditions: 40 h incubation, 16 μM ETYA as 100% control, read-out: EC50 PPARα
Assign a class from recorded EC50; defined classes: lower level: < 300 nM; middle level: ≥ 300 nM and < 2000 nM; upper level: ≥ 2000 nM

Example results:
Cc1oc(-c2ccccc2)nc1CC(=O)OCc1ccc(CC(SCCc2ccc(F)cc2)C(=O)O)cc1 (stereo not drawn) [Example 15] : lower level
COc1ccc(CC(=O)OCc2ccc(CC(SCCc3ccc(F)cc3)C(=O)O)cc2)cc1 (stereo not drawn) : lower level
CS(=O)(=O)Oc1ccc(CC(=O)OCCc2ccc(CC(SCCc3ccc(F)cc3)C(=O)O)cc2)cc1 (stereo not drawn) : lower level
Cc1cccc(C)c1COC(=O)Cc1ccc(SCc2ccccc2C(=O)O)cc1 : middle level
O=C(Cc1ccc(CC(C(=O)O)S(=O)(=O)CCc2ccc(F)cc2)cc1)OCc1ccc(C(F)(F)F)cc1 (stereo not drawn) : upper level
CS(=O)(=O)Oc1ccc(CC(=O)OCCCc2ccc(CC(SCCc3ccc(F)cc3)C(=O)O)cc2)cc1 (stereo not drawn) : middle level
CS(=O)(=O)Oc1ccc(COC(=O)c2ccc(CC(SCCc3ccc(F)cc3)C(=O)O)cc2)cc1 (stereo not drawn) : middle level
COC(=O)C(Cc1ccccc1)OC(=O)Cc1cccc(SCc2ccccc2C(=O)O)c1 (stereo not drawn) : upper level

Shift focus to the following entry.
### Prompt For COC(=O)C(Cc1ccccc1)OC(=O)Cc1ccc(SCc2ccccc2C(=O)O)cc1 (stereo not drawn) , which EC50 bin applies?
### Response upper level

---

Biological target: human PPARgamma (Homo sapiens (Human), UniProt P37231)
Sequence (P37231 205-505): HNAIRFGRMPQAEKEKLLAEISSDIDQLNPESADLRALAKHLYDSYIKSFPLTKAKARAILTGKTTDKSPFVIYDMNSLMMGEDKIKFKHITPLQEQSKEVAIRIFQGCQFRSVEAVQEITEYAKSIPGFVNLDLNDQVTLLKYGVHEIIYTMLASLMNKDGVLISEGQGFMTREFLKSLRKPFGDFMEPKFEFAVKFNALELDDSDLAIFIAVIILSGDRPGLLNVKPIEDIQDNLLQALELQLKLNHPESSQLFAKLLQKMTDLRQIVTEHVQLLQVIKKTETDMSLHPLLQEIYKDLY
Test: Transactivation (reporter gene) assay, GAL4-PPARgamma LBD in U-2 OS cells
Details: 40 h incubation, 16 μM Pioglitazone as 100% control, read-out: EC50 PPARγ
Measured Parameter: log10 EC50 (log10 of the value in µM)
Log scale reminder: EC50 in µM, then log10 taken.

// below: answered molecules
CCOC(Cc1ccc(OC(=O)Cc2nc(-c3ccccc3)oc2C)c(C)c1)C(=O)O (centres unmarked) : -1.37
Cc1oc(-c2ccccc2)nc1CCOC(=O)c1ccc(CC(SCCc2ccc(F)cc2)C(=O)O)cc1 (centres unmarked) [Example 14] : -0.96
CCOC(Cc1ccc(C(=O)OCc2ccc(OS(C)(=O)=O)cc2)cc1)C(=O)O (centres unmarked) : 0.15
COc1ccc(CCOC(=O)Cc2cccc(SCc3ccccc3C(=O)O)c2)cc1OC : 1.04
O=C(Cc1ccc(SCc2ccccc2C(=O)O)cc1)OCCc1ccccc1C(F)(F)F : 0.91
O=C(Cc1cccc(SCc2ccccc2C(=O)O)c1)OCc1ccc(-n2cccn2)cc1 : 0.62
Cc1cccc(C)c1COC(=O)Cc1cccc(SCc2ccccc2C(=O)O)c1 : 0.58

Now look at this entry.
### Prompt Param item = C=CCC(OC(=O)Cc1ccc(SCc2ccccc2C(=O)O)cc1)c1ccccc1 (centres unmarked) ; retrieve measured log10 EC50.
### Response 1.18

---

Target: human PPARgamma (Homo sapiens (Human))
Assay: Transactivation (reporter gene) assay, GAL4-PPARgamma LBD in U-2 OS cells
Details: 40 h incubation, 16 μM Pioglitazone as 100% control, read-out: EC50 PPARγ
Method: Transactivation Assay Expression vectors were prepared by inserting the ligand binding domain cDNA (complementary DNA) of human PPARalpha (amino acid 168-468) and human PPARgamma (amino acid 205-505), 3′ to and in frame with, the yeast GAL4 transcription factor DNA binding domain and the nuclear localization signal from the T-antigen of Polyoma Virus into the mammalian expression vector pSGS (Stratagene). […]
pEC50: −log10 of the molar value.
Classify as follows. Reported pEC50 greater than or equal to 7: criterion met. Reported pEC50 below: criterion not met.

### Prompt Given `O=C(Cc1ccc(SCc2ccccc2C(=O)O)cc1)OCc1ccc(-n2cccn2)cc1` , state whether its pEC50 is at least 7.
### Response criterion not met

---

Target: human PPARalpha (Homo sapiens (Human))
Assay: Transactivation (reporter gene) assay, GAL4-PPARalpha LBD in U-2 OS cells
Assay type: cell-based
Settings: 40 h incubation, 16 μM ETYA as 100% control, read-out: EC50 PPARα
Measured Parameter: pEC50
When answering, recall that pEC50 equals minus log10 of the concentration in mol/L, and write that number alone.

C=CCC(OC(=O)Cc1ccc(SCc2ccccc2C(=O)O)cc1)c1ccccc1 (stereo not shown) : 4.74

### Prompt Lab note: need pEC50 for Cc1oc(-c2ccccc2)nc1CCOC(=O)c1ccc(CC(SCCc2ccc(F)cc2)C(=O)O)cc1 (stereo not shown) [Example 14] on human PPARalpha (Homo sapiens (Human)), anyone have it?
### Response 5.85

### Prompt Lab note: need pEC50 for `COc1ccc(CCOC(=O)Cc2ccc(SCc3ccccc3C(=O)O)cc2)cc1OC` on human PPARalpha (Homo sapiens (Human)), anyone have it?
### Response 4.68

### Prompt Lab note: need pEC50 for `O=C(Cc1ccc(SCc2ccccc2C(=O)O)cc1)OCCc1ccccc1C(F)(F)F` on human PPARalpha (Homo sapiens (Human)), anyone have it?
### Response 6.12

---

Target: human PPARgamma (Homo sapiens (Human), UniProt P37231)
Test: Transactivation (reporter gene) assay, GAL4-PPARgamma LBD in U-2 OS cells
Conditions: 40 h incubation, 16 μM Pioglitazone as 100% control, read-out: EC50 PPARγ
# pEC50 listing for each entry below
When answering, recall that pEC50 equals minus log10 of the concentration in mol/L, and write that number alone.

CCOC(Cc1ccc(OC(=O)Cc2nc(-c3ccccc3)oc2C)c(Cc2ccccc2)c1)C(=O)O (stereo not shown) : 7.28
Cc1oc(-c2ccccc2)nc1CC(=O)OCc1ccc(CC(SCCc2ccc(F)cc2)C(=O)O)cc1 (single isomer, unassigned; (-)) [Example 19] : 6.33
Cc1oc(-c2ccccc2)nc1CCOC(=O)c1ccc(CC(SCCc2ccc(F)cc2)C(=O)O)cc1 (single isomer, unassigned) [Example 20] : 7.14
O=C(OCc1nc(-c2ccccc2)oc1C(F)(F)F)c1ccc(CC(SCCc2ccc(F)cc2)C(=O)O)cc1 (stereo not shown) : 7.24
Cc1cccc(C)c1COC(=O)Cc1ccc(SCc2ccccc2C(=O)O)cc1 : 4.74

### Prompt Lab note: need pEC50 for CS(=O)(=O)Oc1ccc(CC(=O)OCCCc2ccc(CC(SCCc3ccc(F)cc3)C(=O)O)cc2)cc1 (stereo not shown) on human PPARgamma (Homo sapiens (Human), UniProt P37231), anyone have it?
### Response 4.74

### Prompt Lab note: need pEC50 for `COc1ccc(CCOC(=O)Cc2ccc(SCc3ccccc3C(=O)O)cc2)cc1OC` on human PPARgamma (Homo sapiens (Human), UniProt P37231), anyone have it?
### Response 5.15
